- assayProcedure: In vivo pharmacokinetic and bioavailability experiments of rats
- Set-up: species or system SD rats
- conditionInfo: Sprague-Dawley, rat, plasma; SD rats, Po, 25 mg/kg single dose
I would appreciate it if you labelled entries rule met when half-life is 10 h or higher, otherwise rule not met.

Is half-life at least 10 h? Consider `CCc1ccc2c(c1)c(=O)c(C(=O)Nc1ccc(Oc3ncnc4cc(OCCCN5CCOCC5)c(OC)cc34)c(F)c1)c(C)n2C` rule met

Follow-up item: `CCc1ccc2c(c1)c(=O)c(C(=O)Nc1ccc(Oc3ncnc4cc(OCCN5CCCC5)c(OC)cc34)c(F)c1)c(C)n2C` rule met

Proceed to `CCc1ccc2c(c1)c(=O)c(C(=O)Nc1ccc(Oc3ncnc4cc(OCCN(C)C)c(OC)cc34)c(F)c1)c(C)n2C` rule not met
